- target_under_test: human (hACC2) (Homo sapiens, UniProt O00763)
- Sequence (O00763 whole entry): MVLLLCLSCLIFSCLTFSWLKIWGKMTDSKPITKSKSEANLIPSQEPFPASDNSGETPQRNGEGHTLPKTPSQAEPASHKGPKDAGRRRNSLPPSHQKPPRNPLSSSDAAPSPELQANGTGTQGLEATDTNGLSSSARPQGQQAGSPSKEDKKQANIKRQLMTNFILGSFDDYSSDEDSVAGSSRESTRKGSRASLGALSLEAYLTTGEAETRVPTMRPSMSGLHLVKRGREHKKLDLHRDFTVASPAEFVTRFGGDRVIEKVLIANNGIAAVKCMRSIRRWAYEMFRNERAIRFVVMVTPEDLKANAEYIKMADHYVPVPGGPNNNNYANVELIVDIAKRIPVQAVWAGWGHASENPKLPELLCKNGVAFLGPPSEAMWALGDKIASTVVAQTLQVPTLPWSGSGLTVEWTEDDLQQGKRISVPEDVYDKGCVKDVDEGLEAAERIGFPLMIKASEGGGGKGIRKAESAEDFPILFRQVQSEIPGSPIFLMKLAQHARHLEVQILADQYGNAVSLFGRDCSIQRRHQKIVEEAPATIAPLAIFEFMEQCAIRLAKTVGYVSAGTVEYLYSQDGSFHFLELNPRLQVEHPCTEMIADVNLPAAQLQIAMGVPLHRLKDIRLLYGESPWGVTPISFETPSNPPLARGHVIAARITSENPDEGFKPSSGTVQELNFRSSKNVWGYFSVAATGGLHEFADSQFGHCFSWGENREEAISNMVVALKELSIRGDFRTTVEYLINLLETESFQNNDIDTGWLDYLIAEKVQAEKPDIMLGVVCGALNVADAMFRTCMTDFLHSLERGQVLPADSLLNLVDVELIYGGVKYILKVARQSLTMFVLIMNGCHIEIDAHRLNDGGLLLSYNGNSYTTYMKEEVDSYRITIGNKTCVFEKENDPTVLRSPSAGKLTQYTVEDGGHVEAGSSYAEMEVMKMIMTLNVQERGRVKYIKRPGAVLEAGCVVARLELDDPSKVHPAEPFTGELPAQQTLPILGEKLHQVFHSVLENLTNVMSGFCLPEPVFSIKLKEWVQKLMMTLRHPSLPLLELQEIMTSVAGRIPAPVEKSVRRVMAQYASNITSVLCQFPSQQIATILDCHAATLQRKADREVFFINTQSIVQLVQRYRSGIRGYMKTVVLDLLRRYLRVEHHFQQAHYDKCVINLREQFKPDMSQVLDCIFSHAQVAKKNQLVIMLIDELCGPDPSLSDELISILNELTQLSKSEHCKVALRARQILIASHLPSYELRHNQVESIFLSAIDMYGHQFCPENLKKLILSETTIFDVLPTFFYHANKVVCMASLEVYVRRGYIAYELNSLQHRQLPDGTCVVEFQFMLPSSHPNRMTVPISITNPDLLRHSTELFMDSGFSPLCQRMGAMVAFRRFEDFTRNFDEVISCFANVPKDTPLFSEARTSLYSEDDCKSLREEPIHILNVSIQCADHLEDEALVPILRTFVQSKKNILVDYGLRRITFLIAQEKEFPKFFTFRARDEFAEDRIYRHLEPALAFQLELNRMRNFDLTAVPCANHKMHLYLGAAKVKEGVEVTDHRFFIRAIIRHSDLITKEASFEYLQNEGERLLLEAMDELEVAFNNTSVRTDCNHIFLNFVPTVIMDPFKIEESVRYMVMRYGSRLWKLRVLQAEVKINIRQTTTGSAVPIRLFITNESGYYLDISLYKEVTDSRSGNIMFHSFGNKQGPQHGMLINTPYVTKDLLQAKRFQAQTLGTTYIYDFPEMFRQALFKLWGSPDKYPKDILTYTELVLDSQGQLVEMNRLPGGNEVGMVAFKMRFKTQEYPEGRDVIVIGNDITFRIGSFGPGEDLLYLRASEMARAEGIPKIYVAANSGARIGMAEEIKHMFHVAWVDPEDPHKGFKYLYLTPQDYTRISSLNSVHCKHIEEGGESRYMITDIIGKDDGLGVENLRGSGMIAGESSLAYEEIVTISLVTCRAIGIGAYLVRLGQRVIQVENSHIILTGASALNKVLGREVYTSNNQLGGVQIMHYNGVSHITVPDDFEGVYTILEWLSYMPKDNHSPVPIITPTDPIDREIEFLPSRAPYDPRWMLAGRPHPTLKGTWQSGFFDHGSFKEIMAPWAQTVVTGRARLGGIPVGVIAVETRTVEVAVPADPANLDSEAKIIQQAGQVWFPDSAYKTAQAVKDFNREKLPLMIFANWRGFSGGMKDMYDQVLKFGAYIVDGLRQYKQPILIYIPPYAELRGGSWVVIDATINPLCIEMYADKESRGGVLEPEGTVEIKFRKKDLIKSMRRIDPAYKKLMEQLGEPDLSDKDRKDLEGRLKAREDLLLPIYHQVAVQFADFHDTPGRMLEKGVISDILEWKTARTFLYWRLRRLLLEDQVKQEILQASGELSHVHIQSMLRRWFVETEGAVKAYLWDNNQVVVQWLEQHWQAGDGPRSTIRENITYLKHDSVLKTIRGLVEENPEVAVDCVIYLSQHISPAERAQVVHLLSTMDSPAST
- assay_info: In vitro ACC inhibition assay (ADP-Glo), hACC2
- Type: biochemical
- run_parameters: Table 2b, additional results, 5 nM ACC2, 20 μM ATP, 20 μM acetyl-CoA
- Description: The detailed procedure is as follows. […] 10 μL ADP glo reagent was added. […] 20 μL kinase detection reagent was added.
pIC50: −log10 of the molar value.
Below: a set of entries, each annotated with reported pIC50.
quantity_measured: pIC50

{"compound": "COc1ccc(F)cc1[C@H](Cn1c(=O)n(C(C)(C)C(=O)NC(C)C)c(=O)c2c(C)c(-n3nccn3)sc21)OCCC(C)(C)O [Compound I-168]", "result": "8.00 to 8.30"}
{"compound": "CCc1ccc(F)cc1[C@@H](Cn1c(=O)n(C(C)(C)C(=O)NC(C)C)c(=O)c2c(C)c(-n3nccn3)sc21)OC[C@@H](C)C#N [Compound I-247]", "result": "8.30 to 9.00"}
{"compound": "COc1ccc(F)cc1[C@@](C)(Cn1c(=O)n(C(C)(C)C(=O)NC(C)C)c(=O)c2c(C)c(-n3nccn3)sc21)OCCC#N [Compound I-230]", "result": "7.40 to 8.00"}
{"compound": "COc1ccc(F)cc1[C@H](Cn1c(=O)n(C(C)C(=O)N2CCCC2)c(=O)c2c(C)c(-n3nccn3)sc21)OC(C)C (some centres unmarked) [Compound I-40]", "result": "8.00 to 8.30"}
{"compound": "COc1ccc(F)cc1[C@H](Cn1c(=O)n(C(C)(C)C(=O)NC(C)C)c(=O)c2c(C)c(-n3nccn3)sc21)OC(=O)CO [Compound I-262]", "result": "< 7.40"}
{"compound": "COc1ccccc1[C@@H](O)Cn1c(=O)n(C(C)(C)C(=O)NC(C)C)c(=O)c2c(C)c(-n3nccn3)sc21 [Compound I-256]", "result": "8.00 to 8.30"}
{"compound": "COc1ccc(F)cc1[C@H](Cn1c(=O)n(C(C)(C)C(=O)NC2CCCCC2)c(=O)c2c(C)c(-n3nccn3)sc21)OCCC(C)=O [Compound I-106]", "result": "8.00 to 8.30"}
{"compound": "CCNC(=O)[C@@H](C)n1c(=O)c2c(C)c(-n3nccn3)sc2n(C[C@H](OCCC#N)c2cc(F)ccc2OC)c1=O [Compound I-252]", "result": "8.30 to 9.00"}

====

- target_under_test: fungal (fACC2) (UniProt Q00955)
- Sequence (Q00955 whole entry): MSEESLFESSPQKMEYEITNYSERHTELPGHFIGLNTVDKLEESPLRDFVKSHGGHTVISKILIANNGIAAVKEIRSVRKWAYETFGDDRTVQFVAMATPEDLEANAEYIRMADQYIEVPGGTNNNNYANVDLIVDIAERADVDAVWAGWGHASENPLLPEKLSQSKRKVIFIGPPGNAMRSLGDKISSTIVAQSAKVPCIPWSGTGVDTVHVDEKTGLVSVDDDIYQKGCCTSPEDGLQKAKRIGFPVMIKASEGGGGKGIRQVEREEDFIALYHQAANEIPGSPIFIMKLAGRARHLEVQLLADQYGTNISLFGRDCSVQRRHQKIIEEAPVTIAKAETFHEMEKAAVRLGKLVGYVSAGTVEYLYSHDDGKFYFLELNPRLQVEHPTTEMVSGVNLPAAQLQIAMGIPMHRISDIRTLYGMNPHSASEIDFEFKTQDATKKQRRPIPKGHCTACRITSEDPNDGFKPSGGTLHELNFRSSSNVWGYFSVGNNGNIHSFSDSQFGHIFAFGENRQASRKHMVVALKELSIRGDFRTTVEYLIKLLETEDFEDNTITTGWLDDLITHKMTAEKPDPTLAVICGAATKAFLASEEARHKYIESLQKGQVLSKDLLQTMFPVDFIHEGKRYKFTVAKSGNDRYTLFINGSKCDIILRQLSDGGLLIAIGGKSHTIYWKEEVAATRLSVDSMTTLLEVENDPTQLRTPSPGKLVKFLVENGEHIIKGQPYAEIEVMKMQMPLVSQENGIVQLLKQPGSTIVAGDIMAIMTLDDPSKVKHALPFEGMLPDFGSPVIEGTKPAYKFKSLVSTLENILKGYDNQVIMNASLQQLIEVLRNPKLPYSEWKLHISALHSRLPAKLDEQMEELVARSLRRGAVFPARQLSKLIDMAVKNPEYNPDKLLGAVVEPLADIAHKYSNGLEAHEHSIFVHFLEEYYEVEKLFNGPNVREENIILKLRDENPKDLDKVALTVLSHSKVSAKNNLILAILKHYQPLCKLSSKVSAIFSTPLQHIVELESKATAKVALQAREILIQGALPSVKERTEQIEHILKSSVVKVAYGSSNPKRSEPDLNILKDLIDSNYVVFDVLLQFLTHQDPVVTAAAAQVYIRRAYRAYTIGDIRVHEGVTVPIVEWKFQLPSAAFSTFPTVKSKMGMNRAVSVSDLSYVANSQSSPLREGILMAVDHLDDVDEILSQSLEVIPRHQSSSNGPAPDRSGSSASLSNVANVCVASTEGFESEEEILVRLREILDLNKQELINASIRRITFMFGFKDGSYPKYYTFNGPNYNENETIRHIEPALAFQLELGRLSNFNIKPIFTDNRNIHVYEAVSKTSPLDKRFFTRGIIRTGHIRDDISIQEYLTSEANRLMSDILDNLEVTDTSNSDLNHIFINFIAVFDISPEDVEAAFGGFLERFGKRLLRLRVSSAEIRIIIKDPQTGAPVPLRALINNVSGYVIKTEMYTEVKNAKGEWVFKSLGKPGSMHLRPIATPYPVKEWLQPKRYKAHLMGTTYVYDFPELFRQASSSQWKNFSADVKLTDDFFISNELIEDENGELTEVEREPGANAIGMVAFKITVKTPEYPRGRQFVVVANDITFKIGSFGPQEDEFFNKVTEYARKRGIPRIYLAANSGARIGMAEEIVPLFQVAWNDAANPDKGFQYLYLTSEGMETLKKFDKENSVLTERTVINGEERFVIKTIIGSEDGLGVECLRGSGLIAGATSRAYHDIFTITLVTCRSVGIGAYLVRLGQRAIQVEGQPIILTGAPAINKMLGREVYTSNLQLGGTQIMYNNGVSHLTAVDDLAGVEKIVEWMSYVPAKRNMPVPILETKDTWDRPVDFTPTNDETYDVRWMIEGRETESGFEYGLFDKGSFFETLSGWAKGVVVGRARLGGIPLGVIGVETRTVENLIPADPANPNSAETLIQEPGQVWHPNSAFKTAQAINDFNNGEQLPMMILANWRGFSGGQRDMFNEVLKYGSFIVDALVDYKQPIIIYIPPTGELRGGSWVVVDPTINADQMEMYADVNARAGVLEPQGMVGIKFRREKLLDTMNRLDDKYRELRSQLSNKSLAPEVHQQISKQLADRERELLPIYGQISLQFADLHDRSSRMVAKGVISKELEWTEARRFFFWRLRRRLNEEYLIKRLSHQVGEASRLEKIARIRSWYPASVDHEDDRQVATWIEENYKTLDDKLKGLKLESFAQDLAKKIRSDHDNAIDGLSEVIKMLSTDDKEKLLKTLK
- run_parameters: read-out: fACC2 (in vitro ACC2 Inhibition Assay, IC50); Table 2b, additional results; ADP-Glo, 5 nM ACC2, 20 μM ATP, 20 μM acetyl-CoA
quantity_measured: IC50

{"molecule": "COCCCO[C@@H](Cn1c(=O)n(C(C)(C)C(=O)NC(C)C)c(=O)c2c(C)c(-n3nccn3)sc21)c1cc(F)ccc1OC", "quantity_measured": "IC50", "result": "0.3 to 1 nM"}
{"molecule": "COc1ccc(F)cc1[C@H](Cn1c(=O)n(C(C)(C)C(=O)N2CC=CC2)c(=O)c2c(C)c(-n3nccn3)sc21)OC[C@H](C)O", "quantity_measured": "IC50", "result": "0.3 to 1 nM"}
{"molecule": "CCc1ccc(F)cc1[C@@H](Cn1c(=O)n(C(C)(C)C(=O)NC(C)C)c(=O)c2c(C)c(-n3nccn3)sc21)OCC(C)(C)O (stereo in doubt)", "quantity_measured": "IC50", "result": "5 to 10 nM"}

====

- Tested on: Botrtyis cinerea (Bc)
- assay_info: Growth inhibition assay of fungal pathogens, Bc
- Assay type: cell-based
- run_parameters: 48 h, Botrtyis cinerea; growth inhibition vs 2% DMSO control at 48 hours; read-out: Concentration at 90% Inhibition Bc
Below: a set of entries, each annotated with reported IC90.
quantity_measured: IC90 (µg/mL)

{"compound": "COc1ccc(F)cc1[C@H](Cn1c(=O)n(C(C)(C)C(=O)NC2CC2)c(=O)c2c(C)c(-n3nccn3)sc21)OC(C)C [Compound I-73]", "quantity_measured": "IC90", "units_of_measure": "µg/mL", "quantitative_readout": 2}
{"compound": "COc1ccc(F)cc1[C@H](Cn1c(=O)n(C(C)(C)C(=O)N2CCCC2)c(=O)c2c(C)c(-n3nccn3)sc21)OCC(C)C [Compound I-12]", "quantity_measured": "IC90", "units_of_measure": "µg/mL", "quantitative_readout": 0.4}
{"compound": "CCO[C@@H](Cn1c(=O)n(C(C)(C)C(=O)N2CCCC2)c(=O)c2c(C)c(-n3nccn3)sc21)c1cc(F)ccc1OC [Compound I-42]", "quantity_measured": "IC90", "units_of_measure": "µg/mL", "quantitative_readout": 0.4}
{"compound": "CCNC(=O)C(C)(C)n1c(=O)c2c(C)c(-n3nccn3)sc2n(C[C@H](OCC(C)C)c2cc(F)ccc2OC)c1=O [Compound I-9]", "quantity_measured": "IC90", "units_of_measure": "µg/mL", "quantitative_readout": 0.4}

====

Below: a set of entries, each annotated with reported pIC50.
- target_under_test: human (hACC2) (Homo sapiens, UniProt O00763)
- assay_info: In vitro ACC inhibition assay (ADP-Glo), hACC2
- Type: biochemical
- run_parameters: Table 2b, additional results, 5 nM ACC2, 20 μM ATP, 20 μM acetyl-CoA
pIC50: −log10 of the molar value.

{"molecule": "COc1ccccc1[C@H](Cn1c(=O)n(C(C)(C)C(=O)O)c(=O)c2c(C)c(-n3nccn3)sc21)OC1CCOCC1 [Compound I-96]", "pIC50": "8.30 to 9.00"}
{"molecule": "COc1ccc(F)cc1[C@H](Cn1c(=O)n([C@H](C)C(=O)N2CCCC2)c(=O)c2c(C)c(-n3nccn3)sc21)OCC(C)(C)O [Compound I-175]", "pIC50": "8.00 to 8.30"}
{"molecule": "COc1ccc(F)cc1[C@@](O)(CO)Cn1c(=O)n(C(C)(C)C(=O)NC(C)C)c(=O)c2c(C)c(-n3nccn3)sc21 [Compound I-225]", "pIC50": "8.00 to 8.30"}

====

- Tested on: Rhizoctonia solani (Rs)
- assay_info: Growth inhibition assay of fungal pathogens, Rs
- Format: cell-based
- run_parameters: 48 h, mycelial plugs, growth inhibition at 48 hours vs 2% DMSO control, read-out: Concentration at 90% Inhibition Rs
Below: a set of entries, each annotated with reported IC90.

{"compound_smiles": "COc1ccc(F)cc1[C@H](Cn1c(=O)n(C(C)(C)C(=O)NC(C)C)c(=O)c2c(C)c(-n3nccn3)sc21)OC(=O)CO", "units_of_measure": "µg/mL", "op": ">", "IC90": 50}
{"compound_smiles": "COc1ccc(F)cc1[C@H](Cn1c(=O)n(C(C)(C)C(=O)NC(C)C)c(=O)c2c(C)c(-n3nccn3)sc21)OCCC(N)=O", "units_of_measure": "µg/mL", "op": "=", "IC90": 2}
{"compound_smiles": "CCNC(=O)C(C)(C)n1c(=O)c2c(C)c(-n3nccn3)sc2n(C[C@@H](O)c2cc(F)ccc2OC)c1=O", "units_of_measure": "µg/mL", "op": "=", "IC90": 2}
{"compound_smiles": "COc1ccc(F)cc1[C@@H](O)Cn1c(=O)n([C@H](C)C(=O)N(C)C(C)C)c(=O)c2c(C)c(-n3nccn3)sc21", "units_of_measure": "µg/mL", "op": "=", "IC90": 0.4}
{"compound_smiles": "COc1ccc(F)cc1[C@H](Cn1c(=O)n(C(C)(C)C(=O)NC(C)C)c(=O)c2c(C)c(-n3nccn3)sc21)OCCC#N", "units_of_measure": "µg/mL", "op": "=", "IC90": 0.08}
{"compound_smiles": "CCNC(=O)C(C)(C)n1c(=O)c2c(C)c(-n3nccn3)sc2n(C[C@H](OCC(C)C)c2cc(F)ccc2OC)c1=O", "units_of_measure": "µg/mL", "op": "=", "IC90": 0.4}
{"compound_smiles": "COc1ccc(F)cc1[C@H](Cn1c(=O)n(C(C)(C)C(=O)N2CC=CC2)c(=O)c2c(C)c(-n3nccn3)sc21)OC1CCOCC1", "units_of_measure": "µg/mL", "op": "=", "IC90": 0.08}

====

Below: a set of entries, each annotated with reported IC90.
- System: Rhizoctonia solani (Rs)
- assay_info: Growth inhibition assay of fungal pathogens, Rs
- Format: cell-based
- run_parameters: 48 h, mycelial plugs, growth inhibition at 48 hours vs 2% DMSO control, read-out: Concentration at 90% Inhibition Rs

{"compound": "COc1ccc(F)cc1[C@H](Cn1c(=O)n(C(C)(C)C(=O)NC(C)C)c(=O)c2c(C)c(-n3nccn3)sc21)OC(C)=O [Compound I-258]", "IC90": "> 50 µg/mL"}
{"compound": "COc1ccc(F)cc1[C@@H](O)Cn1c(=O)n(C(C)(C)C(N)=O)c(=O)c2c(C)c(-n3nccn3)sc21 [Compound I-194]", "IC90": "> 50 µg/mL"}
{"compound": "COc1ccc(Br)cc1[C@H](Cn1c(=O)n(C(C)(C)C(=O)NC(C)C)c(=O)c2c(C)c(-n3nccn3)sc21)OCC(C)(C)C#N [Compound I-224]", "IC90": "> 50 µg/mL"}
